Test system: CP211
Test Description: qHTS profiling for inhibitors of Plasmodium falciparum proliferation (AID 504749); note: nearly all actives have a fitted effect of over 60% in size
Assay Conditions: P. falciparum in erythrocytes, SYBR Green DNA, 72 h; series mostly up to 28.7 µM
Records with an inconclusive call do not appear. The source made the active and inactive calls. Calls come from the whole dose curve; as a rule, active = well fitted inhibition curve with a large enough effect; inconclusive = small, poorly fitted or top-dose-only effect; inactive = flat fitted curve, though single readings scatter.
Reply using exactly one outcome from TRUE = active, FALSE = inactive

Some solved cases for reference:
* CCCCCCCCCCCCCCCC[N+](C)(C)Cc1ccccc1 | TRUE
* CCCCCCCCCCCCCC[N+](C)(C)C | TRUE
* Nc1ncnc2nc[nH]c12 | FALSE

Ask | Could you kindly confirm the outcome this assay logged for O=C(Nc1ccc(Cl)cc1)Nc1ccc(Cl)c(Cl)c1 ?
Reply | TRUE

Ask | Could you kindly confirm the outcome this assay logged for CCCCCCCCCCCCCCCC[n+]1ccccc1 ?
Reply | TRUE

----------
activity, negative = cell killing values for the compounds below.
Test Description: Drug repurposing screens with cells derived from glioblastoma tumor samples (AID 1345199); note: % is set by controls: 0 for no effect and ±100 for the full control effect; nearly all actives have a fitted effect of over 40% in size
Assay Conditions: GBM patient neurospheres viability, ATP luminescence, 48 h; at 91.6 µM (top of the series); tumour line B
Inconclusive results are not listed. Activity calls are given as the source filed them. Calls follow the shape of the dose curve; as a rule, active = well fitted inhibition curve with a large enough effect; inconclusive = small, poorly fitted or top-dose-only effect; inactive = flat fitted curve, though single readings scatter.

Illustrative cases are given below, each with its answer.
* CC(C)(c1ccc(O)cc1)c1ccc(O)cc1 | -24% (inactive)
* O=C(NO)c1ccccc1 | -25.1% (inactive)
* CC(C)C(C)(C)C(C)(C)C(C)(C)S | -9.39% (inactive)
* CN1C(=O)c2ccccc2C1=O | -9.87% (inactive)
* c1ccc2occc2c1 | -4.88% (inactive)

Ask | Entry Brc1ccccc1-c1ccccc1 needs its activity, negative = cell killing filled in; supply it.
Reply | -9.1% (inactive)

Ask | Entry CCCC(=O)c1cc(O)c(O)cc1O needs its activity, negative = cell killing filled in; supply it.
Reply | -19.8% (inactive)

----------
Test Description: qHTS for differential inhibitors of proliferation of Plasmodium falciparum line GB4 (AID 1816);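 note: parasite growth measured after 72 h incubation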
Assay Conditions: Plasmodium falciparum GB4 proliferation inhibition; series mostly up to 28.7 µM
Inconclusive results are not listed. Activity calls are given as the source filed them. Calls come from the whole dose curve; as a rule, active = well fitted curve in the direction sought with a large enough effect; inconclusive = small, poorly fitted or top-dose-only effect, or another doubt; inactive = no such curve, though single readings can be large or run the other way.
Reply using exactly one outcome from active, inactive

Some solved cases for reference:
- CN(C)c1cc2c(Nc3ccc4c(cnn4Cc4ccccc4)c3)ncnc2cn1: active
- O=C1NC(c2cccc([N+](=O)[O-])c2)=CCN1c1ccccc1O: inactive
- O=[N+]([O-])c1ccc(-c2nc(-c3ccc(F)cc3)c(-c3ccncc3)[nH]2)cc1: active

Ask | Could you kindly confirm the outcome this assay logged for Brc1ccc([C@H]2CN3CCSC3=N2)cc1 ?
Reply | active

Ask | Could you kindly confirm the outcome this assay logged for C[C@]12CCC(=O)C=C1CC[C@@H]1[C@@H]2[C@@H](O)C[C@@]2(C)[C@H]1CC[C@]2(O)C(=O)COC(=O)CCC(=O)O ?
Reply | inactive

----------
System: HeLa
Test Description: Primary qHTS to identify gynecologic anti-cancer compounds using libraries of approved drugs and bioactive compounds (AID 1345084); note: % is set by controls: 0 for no effect and ±100 for the full control effect; nearly all actives have a fitted effect of over 55% in size
Assay Conditions: Gynecologic cancer cell panel viability, ATPlite luminescence, 48 h; series mostly up to 57.5 µM
Results filed as inconclusive are left out. Active and inactive are the calls of the source. Calls follow the shape of the dose curve; as a rule, active = well fitted cell-killing curve with a large enough effect; inconclusive = small, poorly fitted or top-dose-only effect, or effect the other way; inactive = flat fitted curve, though single readings scatter.
Reply using exactly one outcome from active, inactive

Some solved cases for reference:
• CCCCCOc1ccc(C2SC(=O)NC2=O)cc1OCC (configuration not stated) = inactive
• CCC(C(=O)OCCN1CCOC(c2ccccc2)C1C)c1ccccc1 (configuration not stated) = inactive
• Cc1ccc2ccc(Cl)cc2n1 = inactive
• C/C(=N/NC(=O)c1ccncc1)C(=O)O = inactive
• C[C@H](N)C(=O)N[C@@H](C)C(=O)NC1[C@H]2CN(c3nc4c(cc3F)c(=O)c(C(=O)O)cn4-c3ccc(F)cc3F)C[C@@H]12 (some centres not stated) = inactive

Ask | Could you kindly confirm the outcome this assay logged for CC(C)N(CCC(=O)c1ccc2ccccc2c1)Cc1ccccc1 ?
Reply | inactive

Ask | Could you kindly confirm the outcome this assay logged for CCCCC(=O)OCC(=O)[C@H]1[C@H](C)C[C@H]2[C@@H]3C[C@H](F)C4=CC(=O)C=C[C@]4(C)[C@@]3(F)[C@@H](O)C[C@@]21C ?
Reply | inactive

Ask | Could you kindly confirm the outcome this assay logged for OC1(c2ccccc2)CCNCC1 ?
Reply | inactive
